- target.desc: GABAA2 receptors (α2, β3, γ2 receptor subunits transfected into Sf9 cells) (Homo sapiens, UniProt P18507+P47869)
- test.description: GABAA2 Binding Method ([3H]-Flunitrazepam displacement)
- settings: [3H]-Flunitrazepam ~2 nM, α2β3γ2 Sf9 membranes, 1 hr at 4° C.
We label by threshold. Values of Ki strictly beneath 0.008 µM are t. Values of 0.008 µM and up are f.

compound: COc1ccc(F)c(-c2c(F)ccc3c(N)c4c(nc23)CN(C2CC2)C4=O)c1
class: t
--
compound: CCN1Cc2nc3c(-c4cnc(OC)nc4OC)c(F)ccc3c(N)c2C1=O [Example 34]
class: f
--
compound: COc1ccc(F)c(-c2cccc3c(N)c4c(nc23)CN(C)C4=O)c1
class: f
--
compound: CCCN1Cc2nc3c(-c4cccc(N(C)C)c4)cccc3c(N)c2C1=O
class: f
--
compound: CCCN1Cc2nc3c(-c4ccccc4C#N)cccc3c(N)c2C1=O
class: f
--
compound: COc1cccc(-c2cccc3c(N)c4c(nc23)CN(C2CCC2)C4=O)c1C#N
class: t
--
compound: Cc1cc(C)cc(-c2cccc3c(N)c4c(nc23)CN(C)C4=O)c1
class: f
--
compound: COc1cccc(-c2c(F)ccc3c(N)c4c(nc23)CN(C2CCC2)C4=O)c1F
class: t
--
compound: COc1cc(-c2cccc3c(N)c4c(nc23)CN(C2CCC2)C4=O)c(OC)nn1 [Example 84]
class: t
--
compound: CCCN1Cc2nc3c(-c4ccncc4)cccc3c(N)c2C1=O
class: f
--
compound: CCN1Cc2nc3c(-c4c(F)cc(OC)cc4F)c(F)ccc3c(N)c2C1=O
class: t
--
compound: COc1ccncc1-c1c(F)ccc2c(N)c3c(nc12)CN(C1CC1)C3=O [Example 41]
class: t
--
compound: CCCN1Cc2nc3c(-c4ccc(C)nc4Cl)cccc3c(N)c2C1=O [Example 15]
class: t
--
compound: CCN1Cc2nc3c(-c4cc(F)ccc4OC)c(F)ccc3c(N)c2C1=O [Example 46]
class: f
--
compound: COc1ccc(-c2c(F)ccc3c(N)c4c(nc23)CN(C2CC2)C4=O)c(F)c1
class: t
--
compound: COc1ncccc1-c1cccc2c(N)c3c(nc12)CN(C1CC1)C3=O [Example 66]
class: f
--
compound: COc1ccc(CN2Cc3nc4c(-c5cc(F)cc(F)c5)cccc4c(N)c3C2=O)cc1OC
class: f
--
compound: CCCN1Cc2nc3c(-c4cnc(OC)nc4)cccc3c(N)c2C1=O
class: f
--
compound: COc1ncc(-c2cccc3c(N)c4c(nc23)CN(C2CC2)C4=O)cc1C
class: f

----------
- target.desc: GABAA2 receptors (α2, β3, γ2 receptor subunits transfected into Sf9 cells) (Homo sapiens, UniProt P18507+P47869)
- test.description: GABAA2 Binding Method ([3H]-Flunitrazepam displacement)
- settings: [3H]-Flunitrazepam ~2 nM, α2β3γ2 Sf9 membranes, 1 hr at 4° C.
pKi: −log10 of the molar value.

molecule: CCCCN1Cc2nc3c(-c4cccnc4OC)cccc3c(N)c2C1=O
pKi: 7.71
//
molecule: CCCN1Cc2nc3c(-c4cc(OC)cnc4Cl)cccc3c(N)c2C1=O
pKi: 8.01
//
molecule: COc1ccc(OC)c(-c2cccc3c(N)c4c(nc23)CN(Cc2ccc(OC)c(OC)c2)C4=O)c1
pKi: 7.96
//
molecule: CCCN1Cc2nc3c(-c4ccc5ncccc5c4)cccc3c(N)c2C1=O
pKi: 7.71
//
molecule: CCN1Cc2nc3c(-c4cc(F)ccc4OC)cccc3c(N)c2C1=O
pKi: 7.56
//
molecule: COc1ccc(CN2Cc3nc4c(-c5cccnc5OC)cccc4c(N)c3C2=O)cc1
pKi: 7.66
//
molecule: COc1ccc(-c2cccc3c(N)c4c(nc23)CN(C)C4=O)cc1OC
pKi: 7.06
//
molecule: COc1cccc(F)c1-c1cccc2c(N)c3c(nc12)CN(C1CC1)C3=O (atropisomer, axis not shown; (P))
pKi: 8.44
//
molecule: CCCN1Cc2nc3c(-c4c(F)cccc4F)cccc3c(N)c2C1=O
pKi: 8.30
//
molecule: CCCN1Cc2nc3c(-c4cnccc4OC)cccc3c(N)c2C1=O
pKi: 7.41
//
molecule: CCCN1Cc2nc3c(-c4cccc(OC)c4OC)cccc3c(N)c2C1=O
pKi: 7.61
//
molecule: COc1ccc(Cl)cc1-c1cccc2c(N)c3c(nc12)CN(C1CC1)C3=O
pKi: 8.05
//
molecule: CCCN1Cc2nc3c(-c4cnn(C)c4)cccc3c(N)c2C1=O
pKi: 7.00
//
molecule: CCN1Cc2nc3c(-c4ccccc4C#N)cccc3c(N)c2C1=O
pKi: 7.85
//
molecule: COc1cccc(F)c1-c1cccc2c(N)c3c(nc12)CN([C@H]1C[C@@H](C)C1)C3=O
pKi: 9.02
//
molecule: COc1ccc(-c2cccc3c(N)c4c(nc23)CN(C2CCC2)C4=O)c(OC)n1
pKi: 8.42
//
molecule: N#Cc1ccc(-c2cccc3c(N)c4c(nc23)CN(C2CCC2)C4=O)nc1
pKi: 8.62
//
molecule: COc1cccc(F)c1-c1c(F)ccc2c(N)c3c(nc12)CN(C)C3=O
pKi: 8.09
//
molecule: COc1ccc(CN2Cc3nc4c(-c5cc(F)ccc5OC)cccc4c(N)c3C2=O)cc1
pKi: 7.33
//
molecule: Nc1c2c(nc3c(-c4ncccc4F)cccc13)CN(C1CCC1)C2=O
pKi: 8.33

----------
- target.desc: GABAA receptor α2β3γ2 (Homo sapiens, UniProt P18507+P47869)
- Construct: expressed in transfected cells; host or cells: Xenopus laevis oocytes injected with cRNA
- Sequence (P47869 29-451): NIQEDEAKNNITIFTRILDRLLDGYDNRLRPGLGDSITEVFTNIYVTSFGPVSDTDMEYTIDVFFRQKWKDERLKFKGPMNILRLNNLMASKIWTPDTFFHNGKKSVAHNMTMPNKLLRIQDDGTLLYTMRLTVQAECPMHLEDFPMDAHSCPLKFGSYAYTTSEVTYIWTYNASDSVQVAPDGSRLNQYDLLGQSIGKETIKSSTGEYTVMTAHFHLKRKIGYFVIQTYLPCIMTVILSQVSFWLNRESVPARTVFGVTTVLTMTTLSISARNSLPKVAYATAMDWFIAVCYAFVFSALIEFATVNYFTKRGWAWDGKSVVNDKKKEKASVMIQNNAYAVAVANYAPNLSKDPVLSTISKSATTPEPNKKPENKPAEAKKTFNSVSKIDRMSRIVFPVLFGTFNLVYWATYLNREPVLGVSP
- Sequence (P28472 26-473 partner): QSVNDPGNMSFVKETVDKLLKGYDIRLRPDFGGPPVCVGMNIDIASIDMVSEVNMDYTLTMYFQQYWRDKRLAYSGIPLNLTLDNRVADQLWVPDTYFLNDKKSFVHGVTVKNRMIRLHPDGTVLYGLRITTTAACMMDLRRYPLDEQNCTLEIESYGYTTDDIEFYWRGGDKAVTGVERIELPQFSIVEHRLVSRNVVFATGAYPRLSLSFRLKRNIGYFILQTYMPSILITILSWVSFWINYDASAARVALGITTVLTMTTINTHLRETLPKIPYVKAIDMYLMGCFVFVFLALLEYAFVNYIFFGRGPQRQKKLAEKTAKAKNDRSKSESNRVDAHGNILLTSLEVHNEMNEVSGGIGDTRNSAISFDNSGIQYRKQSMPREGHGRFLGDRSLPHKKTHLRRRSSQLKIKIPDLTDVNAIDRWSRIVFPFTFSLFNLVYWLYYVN
- Sequence (P18507 40-475): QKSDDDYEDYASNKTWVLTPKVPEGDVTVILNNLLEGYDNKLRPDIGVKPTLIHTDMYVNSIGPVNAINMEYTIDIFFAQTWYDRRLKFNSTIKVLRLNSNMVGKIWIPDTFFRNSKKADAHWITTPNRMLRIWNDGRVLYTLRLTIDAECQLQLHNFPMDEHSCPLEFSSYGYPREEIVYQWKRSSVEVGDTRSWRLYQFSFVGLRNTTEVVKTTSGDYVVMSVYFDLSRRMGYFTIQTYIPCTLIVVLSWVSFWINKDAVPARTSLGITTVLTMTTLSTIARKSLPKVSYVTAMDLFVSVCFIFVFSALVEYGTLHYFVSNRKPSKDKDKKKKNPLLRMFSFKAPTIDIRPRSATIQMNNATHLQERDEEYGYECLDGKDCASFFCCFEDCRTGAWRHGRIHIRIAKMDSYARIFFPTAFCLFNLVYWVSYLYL
- test.description: Two-electrode voltage-clamp potentiation of GABA EC10 current in Xenopus oocytes, GABAA2
- Type: cell-based
- settings: percentage potentiation of GABA EC10 current divided by that of diazepam
Mark NO for Relative Potentiation for GABAA2 values under 0.2, and YES for everything at or above.

compound: Nc1c2c(nc3c(-c4ccc(F)cc4F)cccc13)CN(C1CC1)C2=O
class: NO
--
compound: CCN1Cc2nc3c(-c4cc(OC)ccc4F)c(F)ccc3c(N)c2C1=O
class: NO
--
compound: COc1ccc(F)cc1-c1cccc2c(N)c3c(nc12)CN(C1CCC1)C3=O
class: YES
--
compound: COc1cc(-c2cccc3c(N)c4c(nc23)CN(C2CCC2)C4=O)c(C#N)cn1 [Example 96]
class: YES
--
compound: COc1ccc(F)c(-c2cccc3c(N)c4c(nc23)CN(C2CC2)C4=O)c1 [Example 60]
class: YES
--
compound: COc1ccc(F)c(-c2c(F)ccc3c(N)c4c(nc23)CN(C2CCC2)C4=O)c1
class: YES
--
compound: CCCN1Cc2nc3c(-c4cnc(F)c(C)c4)cccc3c(N)c2C1=O
class: YES
--
compound: Nc1c2c(nc3c(-c4nccnc4F)cccc13)CN(C1CCC1)C2=O
class: NO
--
compound: COc1cccc(-c2cccc3c(N)c4c(nc23)CN(C2CCC2)C4=O)c1C#N
class: NO
--
compound: CCCN1Cc2nc3c(-c4cc(C)cnc4Cl)cccc3c(N)c2C1=O
class: YES

----------
- target.desc: GABAA2 receptors (α2, β3, γ2 receptor subunits transfected into Sf9 cells) (Homo sapiens, UniProt P18507+P47869)
- test.description: GABAA2 Binding Method ([3H]-Flunitrazepam displacement)
- settings: [3H]-Flunitrazepam ~2 nM, α2β3γ2 Sf9 membranes, 1 hr at 4° C.
pKi: −log10 of the molar value.

structure.smiles: COc1cccc(-c2cccc3c(N)c4c(nc23)CN(C)C4=O)c1F
pKi: 7.49
--
structure.smiles: N#Cc1cncc(-c2cccc3c(N)c4c(nc23)CN(C2CCC2)C4=O)c1
pKi: 8.23
--
structure.smiles: CCCCN1Cc2nc3c(-c4ccc(C)nc4)cccc3c(N)c2C1=O
pKi: 7.04
--
structure.smiles: COc1cc(F)ccc1-c1c(F)ccc2c(N)c3c(nc12)CN(C1CCC1)C3=O
pKi: 8.92
--
structure.smiles: COc1ncccc1-c1c(F)ccc2c(N)c3c(nc12)CN(C1CC1)C3=O
pKi: 8.59

----------
This listing pairs compounds with measured pKi.
- target.desc: GABAA2 receptors (α2, β3, γ2 receptor subunits transfected into Sf9 cells) (Homo sapiens, UniProt P18507+P47869)
- test.description: GABAA2 Binding Method ([3H]-Flunitrazepam displacement)
- settings: [3H]-Flunitrazepam ~2 nM, α2β3γ2 Sf9 membranes, 1 hr at 4° C.
pKi: −log10 of the molar value.

structure.smiles: Nc1c2c(nc3c(-c4ccncc4)cccc13)CN(C1CCC1)C2=O
pKi: 8.87

structure.smiles: COc1cccc(F)c1-c1cccc2c(N)c3c(nc12)CN(Cc1cccc(Cl)c1)C3=O
pKi: 7.56

structure.smiles: COc1ccc(CN2Cc3nc4c(-c5ccc(OC)cc5OC)cccc4c(N)c3C2=O)cc1
pKi: 7.49

structure.smiles: COc1cc(F)cc(-c2cccc3c(N)c4c(nc23)CN(C)C4=O)c1
pKi: 7.09

structure.smiles: CCCN1Cc2nc3c(-c4ccc(OC)nc4OC)c(F)ccc3c(N)c2C1=O
pKi: 8.53
